Ref: ChEMBL document CHEMBL4689842

# Tested on: U2OS
# ASSAY TEXT: Multiplex assay against U2OS
# Type: toxicity, cell-based
# RECORDED CONDITIONS: human, 12 h, 10 µM, compound concentration 10 uM, replicate 2
Consider the following compounds and their measured Population Healthy Nuclei (%) readings.
# value in %; strip the unit string

COc1ccc(-c2ccc3c(N4CCOCC4)nc(N4C[C@@H](C)O[C@@H](C)C4)nc3n2)cc1CO [Ku-0063794] | 57

stdin: Need Population Healthy Nuclei (%), item O=C1NC(=O)C(c2cnc3ccccn23)=C1c1cn2c3c(cc(F)cc13)CN(C(=O)N1CCCCC1)CC2 [LY-2090314]
stdout: 74

stdin: How about this compound: CCN1CCN(Cc2ccc(Nc3ncc(F)c(-c4cc(F)c5nc(C)n(C(C)C)c5c4)n3)nc2)CC1.CS(=O)(=O)O
stdout: 22

stdin: How about this compound: Cn1nc(C(F)(F)F)cc1-c1cnc(N2CCc3cc(S(=O)(=O)Nc4c(F)cc(Cl)cc4F)cc(N4CCCC4=O)c32)nc1 [TP-020]
stdout: 81

stdin: How about this compound: CCCS(=O)(=O)c1nc(NC2CC2)cc(-c2ccc3c(ccn3C3CC(C)(C)NC(C)(C)C3)c2)n1
stdout: 4
